MEASURED_ON: recombinant human liver glycogen phosphorylase (Homo sapiens)
Construct: made in house; host or cells: Sf9 insect cells (crude homogenate, diluted, used as the enzyme solution)
Sequence (P06737 whole entry): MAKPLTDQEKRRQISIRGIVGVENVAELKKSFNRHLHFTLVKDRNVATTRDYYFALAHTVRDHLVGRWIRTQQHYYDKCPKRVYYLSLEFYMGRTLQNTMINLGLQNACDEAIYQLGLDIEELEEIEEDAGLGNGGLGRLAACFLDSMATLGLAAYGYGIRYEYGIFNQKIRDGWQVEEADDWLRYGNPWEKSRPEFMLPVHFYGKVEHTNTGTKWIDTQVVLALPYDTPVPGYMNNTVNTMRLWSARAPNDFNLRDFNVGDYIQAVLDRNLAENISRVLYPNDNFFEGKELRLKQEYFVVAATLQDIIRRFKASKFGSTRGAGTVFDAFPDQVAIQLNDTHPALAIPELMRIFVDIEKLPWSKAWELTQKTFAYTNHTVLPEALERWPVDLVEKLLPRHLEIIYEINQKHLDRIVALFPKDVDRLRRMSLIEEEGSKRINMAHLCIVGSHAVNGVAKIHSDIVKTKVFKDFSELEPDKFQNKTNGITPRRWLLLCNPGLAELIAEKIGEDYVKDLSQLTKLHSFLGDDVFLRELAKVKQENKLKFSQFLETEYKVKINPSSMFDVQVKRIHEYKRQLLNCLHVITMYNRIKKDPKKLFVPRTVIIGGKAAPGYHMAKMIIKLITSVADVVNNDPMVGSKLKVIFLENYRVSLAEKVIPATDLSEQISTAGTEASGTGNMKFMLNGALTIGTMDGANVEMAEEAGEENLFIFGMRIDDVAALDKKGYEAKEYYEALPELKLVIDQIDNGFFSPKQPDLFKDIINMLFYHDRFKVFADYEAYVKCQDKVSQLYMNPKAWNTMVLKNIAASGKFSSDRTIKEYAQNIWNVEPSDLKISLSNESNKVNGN
ASSAY_SUMMARY: Measuring liver glycogen phosphorylase activity (forward reaction system, NADPH absorbance at 340 nm)
Assay type: biochemical
APPLIED_CONDITIONS: compound concentration 300 nmol (in parentheses); read-out: inhibition rate (%) at a certain concentration
Each entry gets Condition not met if its inhibition at 0.3 µM stays under 10%, and Condition met if its inhibition at 0.3 µM is 10% or above.

Field: example entries. Status: answers known.
COc1ccc(F)cc1C(=O)Nc1cc(C(=O)NCc2ccccc2)n[nH]1 = Condition not met
O=C(Nc1ccccc1N1CCOCC1)c1cc(NC(=O)c2cc(F)c(F)cc2Cl)[nH]n1 = Condition met
CCCCN(C(=O)c1cc(NC(=O)c2cc(F)c(F)cc2Cl)[nH]n1)C1CC[S+]([O-])CC1 (stereo not shown) = Condition met
CN(C)CCNC(=O)c1cc(NC(=O)c2cc(F)c(F)cc2Cl)[nH]n1 = Condition not met
CN(C(=O)c1cc(NC(=O)c2cc(F)c(F)cc2Cl)[nH]n1)c1cccc(C(=O)O)c1 = Condition met

// query Determine whether measured inhibition at 0.3 µM meets or exceeds 10% for O=C(NCc1ccccc1)c1cc(NC(=O)c2c(F)ccc(Cl)c2F)[nH]n1
// result Condition met

// query Determine whether measured inhibition at 0.3 µM meets or exceeds 10% for Cc1ccc(C)c(C(=O)Nc2cc(C(=O)NCc3ccccc3)n[nH]2)c1
// result Condition not met

// query Determine whether measured inhibition at 0.3 µM meets or exceeds 10% for CCCCN(C(=O)c1cc(NC(=O)c2cc(F)c(F)cc2Cl)[nH]n1)c1ccc(C(=O)OCC)cc1
// result Condition not met

// query Determine whether measured inhibition at 0.3 µM meets or exceeds 10% for Cc1ccc(F)c(C(=O)Nc2cc(C(=O)NCc3ccccc3)n[nH]2)c1
// result Condition not met

// query Determine whether measured inhibition at 0.3 µM meets or exceeds 10% for COc1ccc(C(=O)Nc2cc(C(=O)NCc3ccccc3)n[nH]2)c(C)c1
// result Condition met

This collection of values is drawn from patent US20070032529A1.
